Entry source: ChEMBL document CHEMBL4627246

Tested on: BT-549
testDescription: Cytotoxicity against human BT549 cells assessed as effect on cell growth at 10 uM incubated for 48 hrs by sulforhodamine B assay
Type: cell-based
conditionInfo: bt-549, 48 h
observedProperty: Activity

- entrySmiles: "COc1ccc(CNC(=O)[C@@H]2CCC(=O)N2Cc2ccc(Cl)cc2Cl)c(OC)c1"
  reportedResult: "Non-Toxic"
- entrySmiles: "CN(C)C(=O)[C@@H]1CCC(=O)N1"
  reportedResult: "Non-Toxic"
- entrySmiles: "CN1C(=O)C(C)(C)C[C@H]1C(=O)NCc1cccc(C(F)(F)F)c1Cl"
  reportedResult: "Non-Toxic"

====

System: T47D
testDescription: Cytotoxicity against human T47D cells assessed as effect on cell growth at 10 uM incubated for 48 hrs by sulforhodamine B assay
Type: cell-based
observedProperty: Activity

Consider the following illustrative entries.
- compound: "COc1ccc(N2C(=O)[C@@H]3C/C(=C\\N(C)C)C(=O)N3C2N(C)C)cc1 (stereo not given in full)"
  reportedResult: "Non-Toxic"
- compound: "CN1C(=O)C(C)(C)C[C@H]1C(=O)NCc1cccc(C(F)(F)F)c1Cl"
  reportedResult: "Non-Toxic"
- compound: "O=C(NCc1ccc(Cl)cc1Cl)[C@@H]1CCC(=O)N1c1cscn1"
  reportedResult: "Non-Toxic"
- compound: "COc1cc(CNC(=O)[C@@H]2CCC(=O)N2)cc(OC)c1OC"
  reportedResult: "Non-Toxic"
- compound: "O=C(NCCc1ccccc1)[C@@H]1CCC(=O)N1Cc1ccc(Br)cc1"
  reportedResult: "Non-Toxic"

## Input Consider the compound COc1ccc(CN2C(=O)[C@@H]3C/C(=C\N(C)C)C(=O)N3C2N(C)C)c(OC)c1 (stereo not given in full) and give its measured Activity.
## Output Non-Toxic

## Input Consider the compound COc1ccc(CN2C(=O)CC[C@H]2C(=O)NCCc2ccccc2)cc1 and give its measured Activity.
## Output Non-Toxic

## Input Consider the compound CN1C(=O)CC[C@H]1C(=O)NCc1cc(C(F)(F)F)ccc1Cl and give its measured Activity.
## Output Non-Toxic

## Input Consider the compound O=C1N[C@H](C(=O)NCc2ccc(Cl)cc2Cl)CO1 and give its measured Activity.
## Output Non-Toxic

## Input Consider the compound COc1ccc(NC(=O)[C@@H]2C/C(=C\N(C)C)C(=O)N2)cc1 and give its measured Activity.
## Output Non-Toxic

====

system: P2X purinoceptor 7 (Homo sapiens)
testDescription: Inhibition of human P2X7 expressed in human HEK293 cells assessed as reduction in BzATP-stimulated TO-PRO-3 incorporation at 10 uM preincubated with compound and TO-PRO-3 for 15 mins prior to BzATP addition and measured after 1 hr by Fluo-3AM dye based flow cytometry relative to control
Assay type: cell-based
Activity calls are given as the source filed them. How the calls were made is not given here.
observedProperty: inhibition

Consider the following illustrative entries.
- compound: "COC(=O)[C@@H]1CCC(=O)N1c1ccc(C#N)cc1"
  reportedResult: "inactive"
- compound: "COc1ccc(CNC(=O)[C@@H]2CCC(=O)N2Cc2ccc(Cl)cc2Cl)c(OC)c1"
  reportedResult: "0%"
- compound: "CN(C)C1N(Cc2ccc(Cl)cc2Cl)C(=O)[C@@H]2CC(=O)C(=O)N12 (stereo partly specified)"
  reportedResult: "0%"
- compound: "CN(C)C(=O)[C@@H]1CCC(=O)N1"
  reportedResult: "inactive"
- compound: "O=C(NCc1ccccc1Cl)[C@@H]1CCC(=O)N1c1ccccc1"
  reportedResult: "0%"

## Input Look up inhibition with P2X purinoceptor 7 (Homo sapiens) for this compound: O=C(NCc1ccc(Cl)cc1Cl)[C@@H]1CCC(=O)N1Cc1ccccc1
## Output 100%

## Input Look up inhibition with P2X purinoceptor 7 (Homo sapiens) for this compound: COc1ccccc1CNC(=O)[C@@H]1C/C(=C\N(C)C)C(=O)N1
## Output 0%

## Input Look up inhibition with P2X purinoceptor 7 (Homo sapiens) for this compound: O=C(NCc1ccc(Cl)cc1Cl)[C@@H]1CCC(=O)N1Cc1ccc(Cl)cc1Cl
## Output 0%

## Input Look up inhibition with P2X purinoceptor 7 (Homo sapiens) for this compound: COc1ccc(NC(=O)[C@@H]2CCC(=O)N2)cc1OC
## Output inactive

## Input Look up inhibition with P2X purinoceptor 7 (Homo sapiens) for this compound: O=C(NCc1ccccc1Cl)[C@@H]1CCC(=O)N1Cc1ccc(Cl)cc1
## Output 0%

## Input Look up inhibition with P2X purinoceptor 7 (Homo sapiens) for this compound: O=C(NCc1ccc(Cl)cc1Cl)[C@@H]1CCC(=O)N1c1ccc(Cl)cc1
## Output 0%
